log10 of Ki values, listed per item
# TARGET_ENTITY: KOR (Cavia porcellus, UniProt P41144)
# Construct: from tissue
# Sequence (P41144 whole entry): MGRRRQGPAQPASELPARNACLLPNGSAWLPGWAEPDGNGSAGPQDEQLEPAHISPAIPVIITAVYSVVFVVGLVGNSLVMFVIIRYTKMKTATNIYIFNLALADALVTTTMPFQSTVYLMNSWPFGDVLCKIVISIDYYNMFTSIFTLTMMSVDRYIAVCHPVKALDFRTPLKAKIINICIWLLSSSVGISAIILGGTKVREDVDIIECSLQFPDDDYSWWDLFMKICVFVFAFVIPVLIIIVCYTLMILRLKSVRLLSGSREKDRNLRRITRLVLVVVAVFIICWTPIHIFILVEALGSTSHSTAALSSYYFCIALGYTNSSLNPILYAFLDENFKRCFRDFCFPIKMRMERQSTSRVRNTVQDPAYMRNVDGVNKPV
# ASSAY_TEXT: Opioid receptor binding, KOR, guinea pig brain membranes
# CONDITIONS: in vitro binding assay, guinea pig brain membranes; read-out: Binding Ki (nM) KOR
A value of 2 here means Ki of 100 in nM, since values are log10.

Take a look at these entries with their results.
# COMPOUND, RECORDED_ENDPOINT, MEASURED_VALUE
records = [
    ("CCOC(=O)CNC1CCC2(OCCCc3ccccc3)C3Cc4ccc(O)c5c4C2(CCN3C)C1O5 (stereo not drawn) [8-Et ester]", "log10 of Ki", -0.39),
    ("CO[C@@]12CC[C@H](N[C@@H](CC(N)=O)C(=O)OC(C)(C)C)[C@@H]3Oc4c(O)ccc5c4[C@@]31CCN(C)[C@@H]2C5", "log10 of Ki", 0.73),
    ("CO[C@@]12CC[C@H](N[C@@H](Cc3ccc(O)cc3)C(=O)OC(C)(C)C)[C@@H]3Oc4c(O)ccc5c4[C@@]31CCN(C)[C@@H]2C5", "log10 of Ki", 1.09),
]

**Q:** Note log10 of Ki for the compound shown: `CO[C@@]12CC[C@@H](NCCCC(=O)OC(C)(C)C)[C@@H]3Oc4c(O)ccc5c4[C@@]31CCN(C)[C@@H]2C5`
**A:** 0.94

**Q:** Note log10 of Ki for the compound shown: `CO[C@@]12CC[C@@H](N[C@@H](Cc3ccc(O)cc3)C(=O)OC(C)(C)C)[C@@H]3Oc4c(O)ccc5c4[C@@]31CCN(C)[C@@H]2C5`
**A:** 2.26

**Q:** Note log10 of Ki for the compound shown: `CO[C@@]12CC[C@H](N[C@@H](CCCCN)C(=O)OC(C)(C)C)[C@@H]3Oc4c(O)ccc5c4[C@@]31CCN(C)[C@@H]2C5`
**A:** -0.05

* * *

# TARGET_ENTITY: MOR (Rattus norvegicus)
# Construct: from tissue
# Sequence (P33535 whole entry): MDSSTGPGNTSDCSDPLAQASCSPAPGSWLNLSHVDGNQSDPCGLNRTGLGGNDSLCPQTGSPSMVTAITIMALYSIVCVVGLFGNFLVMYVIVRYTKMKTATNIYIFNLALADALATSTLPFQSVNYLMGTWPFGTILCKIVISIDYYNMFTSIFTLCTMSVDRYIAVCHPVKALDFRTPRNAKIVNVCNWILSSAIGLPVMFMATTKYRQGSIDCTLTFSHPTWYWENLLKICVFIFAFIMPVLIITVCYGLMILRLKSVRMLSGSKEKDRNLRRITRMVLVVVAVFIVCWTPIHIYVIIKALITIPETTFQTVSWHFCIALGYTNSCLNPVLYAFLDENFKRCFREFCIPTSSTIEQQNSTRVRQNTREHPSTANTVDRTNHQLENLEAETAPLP
# ASSAY_TEXT: Opioid receptor binding, MOR, rat brain membranes
# CONDITIONS: in vitro binding assay, rat brain membranes; read-out: Binding Ki (nM) MOR
Ki values, listed per item
The reply should contain only the number, in nM.

Take a look at these entries with their results.
# MOLECULE, Ki, nM
records = [
    ("CCOC(=O)CNC1CCC2(OCCCc3ccccc3)C3Cc4ccc(O)c5c4C2(CCN3C)C1O5 (stereo not drawn) [8-Et ester]", 0.37),
    ("CO[C@@]12CC[C@H](N[C@@H](CCC(=O)OC(C)(C)C)C(=O)OC(C)(C)C)[C@@H]3Oc4c(O)ccc5c4[C@@]31CCN(C)[C@@H]2C5 [19-t-Bu ester]", 0.27),
    ("CO[C@@]12CC[C@H](N[C@H](C(=O)OC(C)(C)C)C(C)C)[C@@H]3Oc4c(O)ccc5c4[C@@]31CCN(C)[C@@H]2C5 [28-t-Bu ester]", 0.25),
    ("CO[C@@]12CC[C@@H](N[C@@H](CCCCN)C(=O)OC(C)(C)C)[C@@H]3Oc4c(O)ccc5c4[C@@]31CCN(C)[C@@H]2C5 [39-t-Bu ester]", 0.58),
    ("CO[C@@]12CC[C@@H](N[C@@H](Cc3ccc(O)cc3)C(=O)OC(C)(C)C)[C@@H]3Oc4c(O)ccc5c4[C@@]31CCN(C)[C@@H]2C5 [10-t-Bu ester]", 1.53),
]

// switching to the query molecule
**Q:** Note Ki for the molecule shown: CO[C@@]12CC[C@H](N[C@@H](CCCCN)C(=O)OC(C)(C)C)[C@@H]3Oc4c(O)ccc5c4[C@@]31CCN(C)[C@@H]2C5 [38-t-Bu ester]
**A:** 0.17

* * *

# TARGET_ENTITY: DOR (Rattus norvegicus)
# Construct: from tissue
# ASSAY_TEXT: Opioid receptor binding, DOR, rat brain membranes
# CONDITIONS: Binding Ki DOR, Table 1-6, rat brain membranes
Ki values, listed per item
The reply should contain only the number, in nM.

Take a look at these entries with their results.
# MOLECULE, Ki (nM)
measured = [
    ("O=C(O)C(Cc1ccccc1)NC1CCC2(O)C3Cc4ccc(O)c5c4C2(CCN3CC2CC2)C1O5 (single isomer, unassigned) [Compound 60]", 2.79),
    ("COC12CCC(NC(CCC(=O)O)C(=O)O)C3Oc4c(O)ccc5c4C31CCN(CC1CC1)C2C5 (centres unmarked) [Compound 74]", 3.61),
    ("CC[C@H](N[C@@H]1CC[C@@]2(OC)[C@H]3Cc4ccc(O)c5c4[C@@]2(CCN3CC2CC2)[C@H]1O5)C(=O)O [Compound 79]", 6.2),
]

**Q:** Note Ki for the molecule shown: COC12CCC(NC(C(=O)O)C(C)C)C3Oc4c(O)ccc5c4C31CCN(CC1CC1)C2C5 (single isomer, unassigned) [Compound 68]
**A:** 0.53

**Q:** Note Ki for the molecule shown: CO[C@@]12CC[C@@H](N[C@@H](C)C(=O)O)[C@@H]3Oc4c(O)ccc5c4[C@@]31CCN(CC1CC1)[C@@H]2C5 [Compound 72]
**A:** 5.8

**Q:** Note Ki for the molecule shown: O=C(O)CN[C@H]1CC[C@@]2(O)[C@H]3Cc4ccc(O)c5c4[C@@]2(CCN3CC2CC2)[C@H]1O5 [Compound 67]
**A:** 13.1

**Q:** Note Ki for the molecule shown: CO[C@@]12CCC(=O)[C@@H]3Oc4c(O)ccc5c4[C@@]31CCN(CC1CC1)[C@@H]2C5 [Compound 14-OMe-NTX, 14-O-Methylnaltrexone, reference compound]
**A:** 7.88

**Q:** Note Ki for the molecule shown: O=C(O)C(Cc1ccccc1)NC1CCC2(O)C3Cc4ccc(O)c5c4C2(CCN3CC2CC2)C1O5 (single isomer, unassigned) [Compound 59]
**A:** 3.53

**Q:** Note Ki for the molecule shown: CO[C@@]12CC[C@H](NCCC(=O)O)[C@@H]3Oc4c(O)ccc5c4[C@@]31CCN(CC1CC1)[C@@H]2C5 [Compound 63]
**A:** 6.25

* * *

# TARGET_ENTITY: DOR (Rattus norvegicus, UniProt P33533)
# Construct: from tissue
# Sequence (P33533 whole entry): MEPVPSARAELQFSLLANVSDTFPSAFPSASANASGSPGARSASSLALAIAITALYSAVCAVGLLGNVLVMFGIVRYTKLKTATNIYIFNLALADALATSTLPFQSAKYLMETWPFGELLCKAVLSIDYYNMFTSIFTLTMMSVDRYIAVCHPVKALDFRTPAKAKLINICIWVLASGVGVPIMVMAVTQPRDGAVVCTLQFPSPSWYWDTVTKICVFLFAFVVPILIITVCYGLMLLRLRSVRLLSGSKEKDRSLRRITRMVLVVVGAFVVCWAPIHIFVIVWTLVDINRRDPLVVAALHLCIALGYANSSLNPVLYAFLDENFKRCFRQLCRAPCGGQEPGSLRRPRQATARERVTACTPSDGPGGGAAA
# ASSAY_TEXT: Opioid receptor binding, DOR, rat brain membranes
# CONDITIONS: Binding Ki (nM) DOR, in vitro binding assay, rat brain membranes
RECORDED_ENDPOINT: Ki
Reply with the number, then its unit.

# COMPOUND, Ki
rows = [
    ("CO[C@@]12CC[C@@H](N[C@@H](CCC(N)=O)C(=O)OC(C)(C)C)[C@@H]3Oc4c(O)ccc5c4[C@@]31CCN(C)[C@@H]2C5", "1.35 nM"),
    ("CO[C@@]12CC[C@@H](N[C@@H](Cc3c[nH]c4ccccc34)C(=O)O)[C@@H]3Oc4c(O)ccc5c4[C@@]31CCN(C)[C@@H]2C5", "1.19 nM"),
    ("CO[C@@]12CC[C@H](N[C@@H](CCC(N)=O)C(=O)O)[C@@H]3Oc4c(O)ccc5c4[C@@]31CCN(C)[C@@H]2C5", "5.13 nM"),
    ("CO[C@@]12CC[C@@H](N[C@@H](CC(N)=O)C(=O)OC(C)(C)C)[C@@H]3Oc4c(O)ccc5c4[C@@]31CCN(C)[C@@H]2C5", "0.66 nM"),
    ("CO[C@@]12CC[C@@H](N[C@@H](CC(C)C)C(=O)OC(C)(C)C)[C@@H]3Oc4c(O)ccc5c4[C@@]31CCN(C)[C@@H]2C5", "0.42 nM"),
    ("CO[C@@]12CC[C@H](N[C@H](C(=O)OC(C)(C)C)[C@@H](C)O)[C@@H]3Oc4c(O)ccc5c4[C@@]31CCN(C)[C@@H]2C5", "0.37 nM"),
]

// switching to the query compound
**Q:** Note Ki for the compound shown: `CCOC(=O)CN[C@H]1CC[C@@]2(OC)[C@H]3Cc4ccc(O)c5c4[C@@]2(CCN3C)[C@H]1O5`
**A:** 0.96 nM

* * *

# TARGET_ENTITY: KOR (Cavia porcellus, UniProt P41144)
# Construct: from tissue
# ASSAY_TEXT: Opioid receptor binding, KOR, guinea pig brain membranes
# CONDITIONS: Binding Ki KOR, Table 2-6, guinea pig brain membranes
RECORDED_ENDPOINT: Ki (nM)
The reply should contain only the number, in nM.

Take a look at these entries with their results.
# COMPOUND, UNIT_LABEL, Ki
records = [
    ("CC[C@H](C)[C@H](N[C@@H]1CC[C@@]2(OC)[C@H]3Cc4ccc(O)c5c4[C@@]2(CCN3CC2CC2)[C@H]1O5)C(=O)O", "nM", 9.49),
    ("CO[C@@]12CC[C@@H](N[C@@H](CC(C)C)C(=O)O)[C@@H]3Oc4c(O)ccc5c4[C@@]31CCN(CC1CC1)[C@@H]2C5", "nM", 11),
    ("COC12CCC(NC(C(=O)O)C(C)C)C3Oc4c(O)ccc5c4C31CCN(CC1CC1)C2C5 (single isomer, unassigned) [Compound 69]", "nM", 3),
]

**Q:** // fetch Ki for `CO[C@@]12CC[C@H](NCCCC(=O)OC(C)(C)C)[C@@H]3Oc4c(O)ccc5c4[C@@]31CCN(CC1CC1)[C@@H]2C5` ; system: KOR (Cavia porcellus, UniProt P41144)
**A:** 0.6
